The values you see were collected from paper PMC3989846.

method: Plasma pharmacokinetics after single intravenous or intragastric dose
Type: in vivo, male ICR mice
test.parameters: male, ICR, mouse, po; intragastric 20 mg/kg; plasma
property.measured: AUC(0-t) (µg·h/mL)
Form entry: value (µg·h/mL) — number only.

Bench note: what AUC(0-t) did COc1cc(C)c2c(Oc3cccc(C(F)(F)F)c3)c(OC)cc(NC(C)CCCN)c2n1 (stereo not shown) [Tafenoquine, tafenoquine] show?
138

###

method: Plasma pharmacokinetics after single intravenous or intragastric dose
Type: in vivo, male ICR mice
test.parameters: male, ICR, mouse, in vivo, iv, 5 mg/kg, intravenous 5 mg/kg; plasma; read-out: AUCinfininty
property.measured: AUC (ng·h/mL)
Form entry: value (ng·h/mL) — number only.

Bench note: what AUC did COc1cc(NC(C)CCCN)c2ncccc2c1 (stereo not shown) [Primaquine, primaquine] show?
1200

###

method: Plasma pharmacokinetics after single intravenous or intragastric dose
Format: in vivo, male ICR mice
test.parameters: male, ICR, mouse, in vivo; intravenous 5 mg/kg; plasma
property.measured: clearance (mL/min/kg)
Form entry: value (mL/min/kg) — number only.

Bench note: what clearance did COc1cc(NC(C)CCCN)c2ncccc2c1 (stereo not shown) show?
69.8

###

method: Liver tissue distribution pharmacokinetics after single intravenous or intragastric dose
Assay type: in vivo, male ICR mice
test.parameters: male, ICR, mouse, po; intragastric 20 mg/kg; liver; read-out: t1/2 elimination (converted)
property.measured: half-life

Bench note: what half-life did COc1cc(C)c2c(Oc3cccc(C(F)(F)F)c3)c(OC)cc(NC(C)CCCN)c2n1 (stereo not shown) [Tafenoquine, tafenoquine] show?
75.5 h
